Experiment: in vivo
Parameters: species or system Sprague Dawley rats
Conditions: male, Sprague Dawley, rat, po, 50 mg/kg
Listing: AUCextrap of selected compounds
State just the number; it will be interpreted in %.

Cc1cc(NCc2ccncc2)c2nc(C)c(-c3ccc4c(c3)c(C)nn4C)n2n1 [Example 1] ... 27.8
Cc1cc(NCc2ccncc2)n2nc(C)c(-c3ccc4c(c3)c(C)nn4C)c2n1 [Example 8] ... 5.7

Problem: Return AUCextrap (reported value) for this compound: Cc1ccc(CNc2cc(C)nn3c(-c4ccc5c(c4)c(C)nn5C)c(C)nc23)cn1 [Example 2]
Result: 8.8

Problem: Return AUCextrap (reported value) for this compound: Cc1cc(NCc2ccc(S(N)(=O)=O)cc2)n2nc(C)c(-c3ccc4c(c3)c(C)nn4C)c2n1 [Example 13]
Result: 14.5

Problem: Return AUCextrap (reported value) for this compound: Cc1nc(NCc2ccncc2)n2nc(C)c(-c3ccc4c(c3)c(C)nn4C)c2n1 [Example 20]
Result: 5.1

Problem: Return AUCextrap (reported value) for this compound: Cc1cc(NCc2ccc(S(C)(=O)=O)cc2)n2nc(C)c(-c3ccc4c(c3)c(C)nn4C)c2n1 [Example 12]
Result: 49.4
